- assaySystem: D(3) dopamine receptor (Homo sapiens) (UniProt P35462)
- Sequence (P35462 whole entry): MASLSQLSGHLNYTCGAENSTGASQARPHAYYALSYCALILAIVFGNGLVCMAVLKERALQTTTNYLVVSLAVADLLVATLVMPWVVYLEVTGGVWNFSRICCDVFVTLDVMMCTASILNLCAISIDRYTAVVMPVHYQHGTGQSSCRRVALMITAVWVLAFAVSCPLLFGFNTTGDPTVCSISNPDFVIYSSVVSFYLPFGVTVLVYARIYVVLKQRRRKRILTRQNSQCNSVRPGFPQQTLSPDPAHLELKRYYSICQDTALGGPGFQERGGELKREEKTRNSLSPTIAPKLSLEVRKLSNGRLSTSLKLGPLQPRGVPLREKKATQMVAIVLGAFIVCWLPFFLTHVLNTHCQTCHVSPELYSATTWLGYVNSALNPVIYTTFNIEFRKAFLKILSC
- statedConditions: Compound concentration 10 µM
- Description: PDSP Primary Binding target: DRD3 - Compounds are tested at 10 uM concentration, plate are incubated at room temperature in the dark for 90 minutes. Reaction are stopped by vacuum filtration onto 0.3% polyethyleneimine soaked filter mats using Filtermate harvester. Scintilation cocktail is then melted onto microwave-dried filters on a hot plate and the radio activity is counted in Microbia counter.
The following compounds are listed with their measured inhibition values.
Form entry: value (%) — number only.

- compound: "Cc1cc([C@@H](C)Nc2cccc(-c3cc(C)c(C(=O)N[C@@H](C)C(=O)O)c(C)c3)c2)ccc1Cl"
  unitOfMeasure: "%"
  inhibition: 58.6
- compound: "NC[C@H](O)c1ccc(O)c(O)c1"
  unitOfMeasure: "%"
  inhibition: 57.9
- compound: "CC(C)Oc1ccccc1C(=O)Nc1ccccc1C(=O)Nc1cccc(S(=O)(=O)C(F)(F)F)c1"
  unitOfMeasure: "%"
  inhibition: 23.1
- compound: "Cc1csc2c(N[C@@H](C)CN3CCN(S(=O)(=O)c4ccc(Cl)c(Cl)c4)CC3)ncnc12"
  unitOfMeasure: "%"
  inhibition: 67.4
- compound: "C[C@@H](NCCc1ccc(O)cc1)[C@@H](O)c1ccc(O)cc1 (relative stereo)"
  unitOfMeasure: "%"
  inhibition: 34.6
- compound: "S=C(NCCCc1c[nH]cn1)NCCCN(Cc1ccc(Cl)c(Cl)c1)c1ccc(Br)cn1"
  unitOfMeasure: "%"
  inhibition: 62.3
- compound: "FC(F)(F)c1c(N2CCC(c3ccccc3)CC2)ccn2c(CC3CC3)nnc12"
  unitOfMeasure: "%"
  inhibition: 14.2
- compound: "CCN(CC)CCCCC1CCN(CC(=O)N2c3ccccc3C(=O)Nc3cccnc32)CC1"
  unitOfMeasure: "%"
  inhibition: 13.8

[ask] Look up inhibition of `CCCCC#Cc1nc(NC)c2ncn([C@@H]3O[C@H](CO)[C@@H](O)[C@H]3O)c2n1` and report it.
[reply] 32.7

[ask] Look up inhibition of `Cc1nc(C#Cc2ccnc(Cl)c2)c(C)n1-c1ccc(OC(F)(F)F)cc1` and report it.
[reply] 13.1

[ask] Look up inhibition of `CNC[C@H](O)c1cccc(O)c1` and report it.
[reply] 12.7

---

- assaySystem: Muscarinic acetylcholine receptor M4 (Homo sapiens) (UniProt P08173)
- Sequence (P08173 whole entry): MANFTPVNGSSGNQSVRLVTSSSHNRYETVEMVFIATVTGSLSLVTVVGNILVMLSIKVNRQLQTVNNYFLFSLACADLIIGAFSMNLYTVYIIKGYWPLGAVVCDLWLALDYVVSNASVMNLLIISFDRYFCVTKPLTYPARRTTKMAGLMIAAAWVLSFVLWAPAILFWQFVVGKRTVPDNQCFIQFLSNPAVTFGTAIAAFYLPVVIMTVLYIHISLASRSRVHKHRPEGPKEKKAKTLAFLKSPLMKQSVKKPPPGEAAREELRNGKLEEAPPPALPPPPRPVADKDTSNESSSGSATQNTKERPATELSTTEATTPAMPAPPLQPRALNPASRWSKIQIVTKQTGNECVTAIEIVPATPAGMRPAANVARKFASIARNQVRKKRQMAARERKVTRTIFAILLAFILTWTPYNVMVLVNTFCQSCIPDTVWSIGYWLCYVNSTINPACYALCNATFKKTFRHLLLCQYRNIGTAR
- statedConditions: Compound concentration 10 µM; call rule not given here
One label from this list, please: active, inactive

See these solved cases before continuing.
- compound: "Clc1cccc(Cl)c1NC1=NCCN1"
  assignedCategory: "inactive"
- compound: "CCCSc1nc(N[C@@H]2C[C@H]2c2ccc(F)c(F)c2)c2nnn([C@@H]3C[C@H](OCCO)[C@@H](O)[C@H]3O)c2n1"
  assignedCategory: "inactive"
- compound: "COc1ccc(C2(O)OC(=O)C(c3ccc4c(c3)OCO4)=C2Cc2cc(OC)c(OC)c(OC)c2)cc1 (configuration not stated)"
  assignedCategory: "inactive"
- compound: "OC[C@H]1O[C@@H](n2cnc3c(NC4CCCC4)ncnc32)[C@H](O)[C@@H]1O"
  assignedCategory: "inactive"
- compound: "C[C@]1(C(=O)N(CCCC(=O)O)Cc2cccc(Cl)c2)CCN1C(=O)c1csc2ccccc12"
  assignedCategory: "inactive"

[ask] Record request — test call for `Cc1c(F)cccc1NC(=O)Nc1ccc(Cl)c(S(=O)(=O)[C@H]2CCCNC2)c1O`
[reply] inactive

[ask] Record request — test call for `Cc1nn(C)c(C)c1-c1cccc2c1CC[C@H](N(C)C)C2`
[reply] inactive

[ask] Record request — test call for `Cc1ccc(O)c([C@H](CCN(C(C)C)C(C)C)c2ccccc2)c1`
[reply] inactive

[ask] Record request — test call for `CCCCC#Cc1nc(NC)c2ncn([C@@H]3O[C@H](CO)[C@@H](O)[C@H]3O)c2n1`
[reply] inactive

[ask] Record request — test call for C[C@@H](NCCc1ccc(O)cc1)[C@@H](O)c1ccc(O)cc1 (relative stereo)
[reply] inactive

[ask] Record request — test call for `COc1ccccc1CN[C@H]1C2CCN(CC2)[C@H]1C(c1ccccc1)c1ccccc1`
[reply] inactive

[ask] Record request — test call for `COc1ccc2cc(S(=O)(=O)N[C@H](CC(=O)N[C@H](Cc3ccc(CN4[C@H](C)CCC[C@@H]4C)cc3)C(=O)N(C)C(C)C)c3ccc4c(c3)OCO4)ccc2c1`
[reply] inactive

[ask] Record request — test call for `CC(C)NC(=O)c1ccc(C#Cc2ccncc2)cn1`
[reply] inactive

[ask] Record request — test call for `CCCCCCCCCCCCC/C=C/[C@@H](O)[C@@H](N)COP(=O)(O)O`
[reply] inactive

[ask] Record request — test call for `CCc1ccc(OCc2ccccc2C(=O)Nc2ccc3nc(C)cc(N)c3c2)cc1`
[reply] active

[ask] Record request — test call for `COc1ccc(OC(F)(F)F)cc1CN[C@H]1CCCN[C@H]1c1ccccc1`
[reply] inactive

[ask] Record request — test call for `Clc1cccc(COc2cncc(N3CCNCC3)n2)c1`
[reply] active

---

- assaySystem: Kappa-type opioid receptor (Homo sapiens) (UniProt P41145)
- Sequence (P41145 whole entry): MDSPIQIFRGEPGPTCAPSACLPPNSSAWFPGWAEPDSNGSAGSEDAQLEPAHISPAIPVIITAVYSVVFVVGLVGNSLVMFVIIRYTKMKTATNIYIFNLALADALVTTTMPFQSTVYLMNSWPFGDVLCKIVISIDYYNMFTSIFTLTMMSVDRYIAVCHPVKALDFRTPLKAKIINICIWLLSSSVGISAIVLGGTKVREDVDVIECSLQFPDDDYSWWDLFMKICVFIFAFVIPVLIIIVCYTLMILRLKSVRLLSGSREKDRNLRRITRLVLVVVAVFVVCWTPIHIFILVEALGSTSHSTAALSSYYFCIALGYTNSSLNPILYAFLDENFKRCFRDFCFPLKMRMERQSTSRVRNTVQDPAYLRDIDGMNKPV
- statedConditions: Compound concentration 10 µM
- Description: PDSP Primary Binding target: OPRK1 - Compounds are tested at 10 uM concentration, plate are incubated at room temperature in the dark for 90 minutes. Reaction are stopped by vacuum filtration onto 0.3% polyethyleneimine soaked filter mats using Filtermate harvester. Scintilation cocktail is then melted onto microwave-dried filters on a hot plate and the radio activity is counted in Microbia counter.
The following compounds are listed with their measured inhibition values.

- compound: "CN(C(=O)Cc1ccc(Cl)c(Cl)c1)C(CN1CCCC1)c1cccc(OCC(=O)O)c1 (stereo not drawn)"
  assaySystem: "Kappa-type opioid receptor (Homo sapiens) (UniProt P41145)"
  inhibition: "100%"
- compound: "Cc1cc(C)cc(-c2cnc3cc(Cl)c(-c4cccc(O)c4)cc3c2OCCCN)c1"
  assaySystem: "Kappa-type opioid receptor (Homo sapiens) (UniProt P41145)"
  inhibition: "60.7%"

API: the following record is the query input.
[ask] Lab note: Kappa-type opioid receptor (Homo sapiens) (UniProt P41145) assay, enter inhibition for `C[C@H](CO)Nc1nc(SCc2cccc(Cl)c2F)nc2[nH]c(=O)sc12` here
[reply] 11%

---

The following compounds are listed with their measured inhibition values.
- assaySystem: Sigma intracellular receptor 2 (Homo sapiens)
- statedConditions: Compound concentration 10 µM
- Description: PDSP Primary Binding target: TMEM97 - Compounds are tested at 10 uM concentration, plate are incubated at room temperature in the dark for 90 minutes. Reaction are stopped by vacuum filtration onto 0.3% polyethyleneimine soaked filter mats using Filtermate harvester. Scintilation cocktail is then melted onto microwave-dried filters on a hot plate and the radio activity is counted in Microbia counter.
Form entry: value (%) — number only.

Would you please look over these solved cases?
- compound: "O=C(Cc1ccc(Cl)c(Cl)c1)N1CCCC[C@H]1CN1CCCC1"
  assaySystem: "Sigma intracellular receptor 2 (Homo sapiens)"
  inhibition / %: 92.3
- compound: "N#Cc1c(O)nc(SCc2cccc(F)c2F)nc1C1CC1"
  assaySystem: "Sigma intracellular receptor 2 (Homo sapiens)"
  inhibition / %: 8.9

[ask] Lab note: Sigma intracellular receptor 2 (Homo sapiens) assay, enter inhibition for CC(C)NCC(O)c1ccc(N)c(C#N)c1 (stereo not given) here
[reply] 29.6

---

- assaySystem: D(2) dopamine receptor (Homo sapiens) (UniProt P14416)
- Sequence (P14416 whole entry): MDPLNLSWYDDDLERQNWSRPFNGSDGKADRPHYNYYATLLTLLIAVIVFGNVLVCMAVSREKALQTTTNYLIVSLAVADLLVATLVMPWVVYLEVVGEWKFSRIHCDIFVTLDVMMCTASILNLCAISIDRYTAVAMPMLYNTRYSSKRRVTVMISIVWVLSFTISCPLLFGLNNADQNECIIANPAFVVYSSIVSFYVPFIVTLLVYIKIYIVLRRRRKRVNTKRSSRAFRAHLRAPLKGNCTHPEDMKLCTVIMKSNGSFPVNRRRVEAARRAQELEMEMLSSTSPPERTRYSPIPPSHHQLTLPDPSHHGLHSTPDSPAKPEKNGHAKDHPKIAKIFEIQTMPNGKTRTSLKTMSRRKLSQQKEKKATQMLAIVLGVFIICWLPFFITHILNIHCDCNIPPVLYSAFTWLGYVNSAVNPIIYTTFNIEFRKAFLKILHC
- statedConditions: Compound concentration 10 µM; call rule not given here
One label from this list, please: True (active), False (inactive)

See these solved cases before continuing.
- molecularString: "O=C(Cc1ccc(Cl)c(Cl)c1)N1CCCC[C@H]1CN1CCCC1"
  assaySystem: "D(2) dopamine receptor (Homo sapiens) (UniProt P14416)"
  assignedCategory: "False"
- molecularString: "O=C(O)Cn1c(C(=O)Nc2nc(-c3ccccc3Cl)cs2)cc2ccccc21"
  assaySystem: "D(2) dopamine receptor (Homo sapiens) (UniProt P14416)"
  assignedCategory: "False"
- molecularString: "Clc1cccc(COc2cncc(N3CCNCC3)n2)c1"
  assaySystem: "D(2) dopamine receptor (Homo sapiens) (UniProt P14416)"
  assignedCategory: "False"

Next compound, please.
[ask] Record request — test call for `CN1C[C@H](C(=O)N[C@]2(C)O[C@@]3(O)[C@@H]4CCCN4C(=O)[C@H](Cc4ccccc4)N3C2=O)C[C@@H]2c3cccc4[nH]cc(c34)C[C@H]21`
[reply] True

---

- assaySystem: 5-hydroxytryptamine receptor 1D (Homo sapiens) (UniProt P28221)
- Sequence (P28221 whole entry): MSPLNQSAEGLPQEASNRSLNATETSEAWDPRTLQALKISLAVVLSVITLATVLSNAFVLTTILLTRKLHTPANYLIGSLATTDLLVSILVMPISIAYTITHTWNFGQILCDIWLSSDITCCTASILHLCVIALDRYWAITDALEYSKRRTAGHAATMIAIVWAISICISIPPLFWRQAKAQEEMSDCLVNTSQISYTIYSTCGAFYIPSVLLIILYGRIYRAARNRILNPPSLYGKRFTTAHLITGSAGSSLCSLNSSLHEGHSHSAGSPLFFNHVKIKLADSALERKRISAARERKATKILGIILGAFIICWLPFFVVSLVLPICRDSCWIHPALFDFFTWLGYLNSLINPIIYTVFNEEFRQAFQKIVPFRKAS
- statedConditions: Compound concentration 10 µM; call rule not given here
One label from this list, please: yes (1) = active, no (0) = inactive

See these solved cases before continuing.
- molecule: "C[C@H](Cc1cc2c(c(C(N)=O)c1)N(CCCO)CC2)NCCOc1ccccc1OCC(F)(F)F"
  assignedCategory: "yes (1)"
- molecule: "O=C(O)c1n[nH]c2c1C[C@H]1C[C@@H]21"
  assignedCategory: "no (0)"
- molecule: "O=C1N/C(=N/c2ccccc2F)S/C1=C\\c1ccc(C(=O)O)cc1"
  assignedCategory: "no (0)"
- molecule: "O=c1ccc2ccc(OCCCCN3CCN(c4cccc5sccc45)CC3)cc2[nH]1"
  assignedCategory: "yes (1)"
- molecule: "CC(C)NCC(O)COc1cccc2[nH]ccc12 (stereo unspecified)"
  assignedCategory: "yes (1)"
- molecule: "O=c1ccn([C@@H]2O[C@H](COP(=O)(O)OP(=O)(O)O)[C@@H](O)[C@H]2O)c(=O)[nH]1"
  assignedCategory: "no (0)"

Next molecule, please.
[ask] Record request — test call for `COc1ccc(/C=C/CCCCOc2ccc(C(=O)c3cccc(C(=O)O)c3)cc2CCC(=O)O)cc1`
[reply] no (0)

---

- assaySystem: 5-hydroxytryptamine receptor 1B (Homo sapiens)
- statedConditions: Compound concentration 10 µM; call rule not given here
One label from this list, please: YES for active, NO for inactive

- molecule: "O=C(O)Cn1c(C(=O)Nc2nc(-c3ccccc3Cl)cs2)cc2ccccc21"
  assignedCategory: "NO"
- molecule: "O=C1O[C@]2(CC[C@H](C(=O)Nc3ccn(-c4ccccc4F)n3)CC2)c2cnccc21"
  assignedCategory: "NO"
- molecule: "CCOC(=O)c1c(C)[nH]c2ccc3c(c12)CN1CCc2cc(OC)ccc2C1O3 (stereo not drawn)"
  assignedCategory: "YES"
- molecule: "CN1C2CCC1CC(OC(c1ccc(F)cc1)c1ccc(F)cc1)C2 (stereo not drawn)"
  assignedCategory: "NO"
- molecule: "CCCCN(CCCC)C(=O)CN1C[C@@H](c2ccc3c(c2)OCO3)[C@H](C(=O)O)[C@H]1c1ccc(OC)cc1"
  assignedCategory: "NO"
- molecule: "CCc1cc2c(c(CC)n1)CCC(=O)N2Cc1ccc(-c2ccccc2-c2nnn[nH]2)cc1"
  assignedCategory: "NO"

[ask] Record request — test call for `C[C@@H](NCCCc1cccc(C(F)(F)F)c1)c1cccc2ccccc12`
[reply] NO

[ask] Record request — test call for `CN1CCC(C(=O)c2cccc(NC(=O)c3c(F)cc(F)cc3F)n2)CC1`
[reply] NO
